test system: T47D human breast cancer cells; assay: In vitro test: alkaline phosphatase assay in T47D human breast cancer cells; format: cell-based; conditions: alkaline phosphatase luminescence after 24 h with compound, test concentration not given
OBSERVABLE: % inhibition (%)
Number in %, nothing else.

Solved cases below.
O=C(c1cc(C(F)(F)F)cc(C(F)(F)F)c1)c1cc(-c2ccncc2)c(N2CCC3(CC2)OCCO3)s1	0
O=C1CCN(c2sc(C(=O)c3ccc(F)cc3)cc2-c2ccncc2)CC1	46
COc1ccccc1C(=O)c1cc(-c2ccncc2)c(N2CCC3(CC2)OCCO3)s1	30

Pending compound:
query: May I ask what % inhibition has been recorded for `O=C(c1ccccc1)c1cc(-c2ccncc2)c(N2CCC3(CC2)OCCO3)s1` ?
result: 34

---

Form field: % inhibition (one value per entry).
system: T47D human breast cancer cells; assay: In vitro test: alkaline phosphatase assay in T47D human breast cancer cells; assay type: cell-based; conditions: alkaline phosphatase luminescence after 24 h with compound, test concentration not given
Quick reminder: number only, in %, skip the unit.

Example compounds with recorded % inhibition:
O=C1CCN(c2sc(C(=O)c3ccc([N+](=O)[O-])cc3)cc2-c2ccncc2)CC1	30
O=C1CCN(c2sc(C(=O)c3cc(C(F)(F)F)cc(C(F)(F)F)c3)cc2-c2ccncc2)CC1	57
CCC(=O)c1cc(-c2ccncc2)c(N2CCC(=O)CC2)s1	26
CCC(=O)c1cc(-c2ccncc2)c(N2CCC3(CC2)OCCO3)s1	0
O=C1CCN(c2sc(C(=O)c3ccccc3)cc2-c2ccncc2)CC1	35
COc1cccc(C(=O)c2cc(-c3ccncc3)c(N3CCC4(CC3)OCCO4)s2)c1	42
O=C1CCN(c2sc(C(=O)c3cccc(Br)c3)cc2-c2ccncc2)CC1	23
O=C1CCN(c2sc(C(=O)c3cccc([N+](=O)[O-])c3)cc2-c2ccncc2)CC1	29

Let us examine a further case.
query: Look up % inhibition: `COc1ccccc1C(=O)c1cc(-c2ccncc2)c(N2CCC(=O)CC2)s1`
result: 39

---

system: T47D human breast cancer cells; assay: In vitro test: alkaline phosphatase assay in T47D human breast cancer cells; assay type: cell-based; details: alkaline phosphatase luminescence after 24 h with compound, test concentration not given
Quick rule: % inhibition of at least 20% means fulfilled, below that means not fulfilled.

O=C(c1ccc([N+](=O)[O-])cc1)c1cc(-c2ccncc2)c(N2CCC3(CC2)OCCO3)s1 [Example 4]	not fulfilled

query: Given COc1cccc(C(=O)c2cc(-c3ccncc3)c(N3CCC(=O)CC3)s2)c1 [Example 12] , state whether its % inhibition is at least 20%.
result: fulfilled

query: Now give it for O=C(c1cccc(Br)c1)c1cc(-c2ccncc2)c(N2CCC3(CC2)OCCO3)s1 [Example 10] too.
result: fulfilled

query: And what about the compound O=C(c1ccc(Cl)c(Cl)c1)c1cc(-c2ccncc2)c(N2CCC3(CC2)OCCO3)s1 [Example 1] ?
result: not fulfilled

query: Now give it for O=C1CCN(c2sc(C(=O)c3ccc(Cl)cc3)cc2-c2ccncc2)CC1 [Example 16] too.
result: fulfilled

query: Thanks! And O=C(c1ccc(Cl)cc1)c1cc(-c2ccncc2)c(N2CCC3(CC2)OCCO3)s1 [Example 3] ?
result: fulfilled

query: Okay, and O=C(c1ccc(F)cc1)c1cc(-c2ccncc2)c(N2CCC3(CC2)OCCO3)s1 [Example 2] ?
result: not fulfilled
